// data source = patent EP0351214A1

molecular target: 5-lipoxygenase (5-LO) (Homo sapiens, UniProt P09917); construct: The leukocytes were homogenised and 5µM arachidonic acid added; from tissue; host or cells: homogenised leukocytes from blood of volunteers; experiment: In vitro inhibition of 5-lipoxygenase (5-LO) in homogenised leukocytes, radioimmunoassay for leucotriene B4; assay type: biochemical; conditions: homogenised leukocytes from blood of normal aspirin-free volunteers; 5µM arachidonic acid, 37°C, 5 minutes; leucotriene B₄ by radioimmunoassay; read-out: IC₅₀(µM) activity LO
Sequence (P09917 whole entry): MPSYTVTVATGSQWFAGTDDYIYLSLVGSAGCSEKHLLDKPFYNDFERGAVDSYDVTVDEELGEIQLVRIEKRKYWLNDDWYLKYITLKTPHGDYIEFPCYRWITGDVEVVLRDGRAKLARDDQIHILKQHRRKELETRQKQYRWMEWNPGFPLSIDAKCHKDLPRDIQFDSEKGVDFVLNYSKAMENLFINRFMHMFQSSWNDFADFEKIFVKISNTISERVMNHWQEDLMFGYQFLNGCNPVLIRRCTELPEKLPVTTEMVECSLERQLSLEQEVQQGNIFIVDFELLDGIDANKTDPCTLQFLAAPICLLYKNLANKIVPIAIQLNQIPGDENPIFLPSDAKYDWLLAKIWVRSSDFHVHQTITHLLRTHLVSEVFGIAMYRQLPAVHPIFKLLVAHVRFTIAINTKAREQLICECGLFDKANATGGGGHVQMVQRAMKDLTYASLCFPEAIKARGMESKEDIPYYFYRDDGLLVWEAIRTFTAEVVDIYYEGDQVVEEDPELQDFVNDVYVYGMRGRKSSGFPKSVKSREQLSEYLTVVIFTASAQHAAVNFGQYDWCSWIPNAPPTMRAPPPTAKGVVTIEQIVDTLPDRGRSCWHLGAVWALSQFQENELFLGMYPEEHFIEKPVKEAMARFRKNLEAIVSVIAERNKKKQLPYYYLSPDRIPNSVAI
reported.endpoint: IC50 (µM)
Reply numerically in µM, unit not repeated.

Inquiry: Given CC(=O)N(O)[C@@H](C)/C=C/c1cccc(Oc2ccc(F)cc2)c1 [Synthetic Example] , state its recorded IC50.
Reply text: 0.15
